# assayed_system: UDP-glucuronosyltransferase 1A10 (Homo sapiens, UniProt Q9HAW8)
# Sequence (Q9HAW8 whole entry): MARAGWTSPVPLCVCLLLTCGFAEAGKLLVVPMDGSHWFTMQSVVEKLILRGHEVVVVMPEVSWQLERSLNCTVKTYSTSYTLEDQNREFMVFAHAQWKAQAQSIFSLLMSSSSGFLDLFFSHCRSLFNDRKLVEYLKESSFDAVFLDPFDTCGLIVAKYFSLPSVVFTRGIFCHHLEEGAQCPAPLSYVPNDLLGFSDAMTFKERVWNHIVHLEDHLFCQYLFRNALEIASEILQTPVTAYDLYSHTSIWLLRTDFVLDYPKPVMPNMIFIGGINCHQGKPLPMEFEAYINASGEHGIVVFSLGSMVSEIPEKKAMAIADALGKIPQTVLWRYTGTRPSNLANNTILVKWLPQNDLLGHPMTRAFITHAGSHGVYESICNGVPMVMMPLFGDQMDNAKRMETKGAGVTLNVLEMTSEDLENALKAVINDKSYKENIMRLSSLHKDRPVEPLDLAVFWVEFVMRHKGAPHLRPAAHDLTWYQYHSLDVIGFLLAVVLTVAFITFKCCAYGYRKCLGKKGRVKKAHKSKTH
# protocol_details: Inhibition of human recombinant UGT1A10 after 10 mins in presence of UDPGA
assay_readout: Ki (µM)
Give a bare numeral; the unit µM is implied.

Lookup: Give its Ki value. Item: COc1ccc(C(=O)Nc2cccc(O)c2NC(=O)c2ccc(N3CCCN(C)CC3)cc2)cc1.O=C(O)CCC(=O)O
Found: 235

====

# assayed_system: UDP-glucuronosyltransferase 1A10 (Homo sapiens)
# protocol_details: Activity of human recombinant UGT1A10 expressed in baculovirus-infected insect cells assessed as intrinsic clearance for enzyme-mediated glucuronide formation per mg of protein at 1 to 250 uM after 10 mins in presence of UDPGA
# Assay type: ADME
assay_readout: clearance (µL/min/mg)
Give a bare numeral; the unit µL/min/mg is implied.

Lookup: Give its clearance value. Item: COc1ccc(C(=O)Nc2cccc(O)c2NC(=O)c2ccc(N3CCCN(C)CC3)cc2)cc1.O=C(O)CCC(=O)O
Found: 39.8

====

# protocol_details: Fraction unbound in human liver microsomes at 1 to 250 uM after 10 mins by ultrafiltration method in presence of 0.1% fatty acid free BSA
# Type: ADME
assay_readout: fraction unbound at 10 min, up to 250 µM
Reply with the value as a number alone.

Lookup: Give its fraction unbound at 10 min, up to 250 µM value. Item: COc1ccc(C(=O)Nc2cccc(O)c2NC(=O)c2ccc(N3CCCN(C)CC3)cc2)cc1.O=C(O)CCC(=O)O
Found: 0.72

====

# Test system: Liver microsome
# protocol_details: Drug metabolism in human liver microsomes assessed as glucuronidation per mg of protein after 10 mins by Michaelis-Menten plot analysis in presence of UDPGA and 0.5% fatty acid free BSA
# Assay type: ADME
assay_readout: Vmax

Lookup: Give its Vmax value. Item: COc1ccc(C(=O)Nc2cccc(O)c2NC(=O)c2ccc(N3CCCN(C)CC3)cc2)cc1.O=C(O)CCC(=O)O
Found: 3.25 nmol/min/mg

====

# protocol_details: Drug metabolism in human liver microsomes assessed as glucuronidation after 10 mins by Michaelis-Menten plot analysis in presence of UDPGA and 2% fatty acid free BSA
# Type: ADME
# conditions_used: read-out: Km(unbound)
assay_readout: Km at 10 min
Quick note: unit goes after the number.

Lookup: Give its Km at 10 min value. Item: COc1ccc(C(=O)Nc2cccc(O)c2NC(=O)c2ccc(N3CCCN(C)CC3)cc2)cc1.O=C(O)CCC(=O)O
Found: 17.6 µM

====

# protocol_details: Fraction unbound in human liver microsomes at 1 to 250 uM after 10 mins by ultrafiltration method in presence of 0.5% fatty acid free BSA
# Type: ADME
assay_readout: fraction unbound at 10 min, up to 250 µM

Lookup: Give its fraction unbound at 10 min, up to 250 µM value. Item: COc1ccc(C(=O)Nc2cccc(O)c2NC(=O)c2ccc(N3CCCN(C)CC3)cc2)cc1.O=C(O)CCC(=O)O
Found: 0.517

====

# protocol_details: Fraction unbound in human liver microsomes at 1 to 250 uM after 10 mins by ultrafiltration method in absence of fatty acid free BSA
# Assay type: ADME
assay_readout: fraction unbound at 10 min, up to 250 µM
Reply with the value as a number alone.

Lookup: Give its fraction unbound at 10 min, up to 250 µM value. Item: COc1ccc(C(=O)Nc2cccc(O)c2NC(=O)c2ccc(N3CCCN(C)CC3)cc2)cc1.O=C(O)CCC(=O)O
Found: 0.873
